What LC50 with 95% confidence limit, resistant strain was measured for each of the following?
# Test system: neonicotinoid insecticide resistant aphid strain
# Run description: Leaf disc spray bioassay on chinese cabbage, aphid mortality (Example 1), resistant strain
# Type: in vivo
# Experimental context: resistant aphid strain from peach orchard, Avignon region, mixed age aphids, mortality 72 hours after treatment

LC50 with 95% confidence limit, resistant strain lookup needed for CN1COCN(Cc2cnc(Cl)s2)/C1=N/[N+](=O)[O-] , thanks. 148 (128-172) ppm

Do the same for CN/C(=N/CC1CCOC1)N[N+](=O)[O-] (stereo not shown) please 538 (435-696) ppm

Lookup N#C/N=C1\SCCN1Cc1ccc(Cl)nc1 >1000 ppm

Subsequent entry: N#CCNC(=O)c1cnccc1C(F)(F)F 2.74 (0.53-6.81) ppm

Also need CN/C(=N\[N+](=O)[O-])NCc1cnc(Cl)s1 , thanks. 904 (478-3616) ppm

Same read-out for C/C(=N\C#N)N(C)Cc1ccc(Cl)nc1 ? 49.3 (35.2-72.0) ppm

Repeat for the following compound: CCN(Cc1ccc(Cl)nc1)/C(=C/[N+](=O)[O-])NC 237 (93.7-3566) ppm
